Would you kindly list melting point for each of these molecules?

The examples below pair each entry with its known result.
- CCOc1ccc(-c2nc(/C=C/C(=O)c3cccc([N+](=O)[O-])c3)cs2)cc1OCC [Example 24]: 125 to 126 °C
- CCOc1ccc(-c2nc(CCC(O)c3ccccc3OC)cs2)cc1OCC (stereo not shown) [Example 186]: 78.2 to 79 °C
- CCOc1ccc(-c2nc(/C=C/C(=O)c3ccc(O)cc3)cs2)cc1OCC [Example 10]: 133 to 134 °C

// next entry
Ask: Need melting point of COc1ccc(-c2nc(CCC(=O)c3ccc(OC(C)=O)c(OC(C)=O)c3)cs2)cc1OC [Example 94] , thanks.
Reply: 128 to 128.5 °C
